Study System: CCR2 (Homo sapiens, UniProt P41597)
Construct: Membranes were prepared from THP-1 cells; endogenous in cells; host or cells: THP-1 cells (membrane preparation)
Sequence (P41597 1-360 isoform P41597-2): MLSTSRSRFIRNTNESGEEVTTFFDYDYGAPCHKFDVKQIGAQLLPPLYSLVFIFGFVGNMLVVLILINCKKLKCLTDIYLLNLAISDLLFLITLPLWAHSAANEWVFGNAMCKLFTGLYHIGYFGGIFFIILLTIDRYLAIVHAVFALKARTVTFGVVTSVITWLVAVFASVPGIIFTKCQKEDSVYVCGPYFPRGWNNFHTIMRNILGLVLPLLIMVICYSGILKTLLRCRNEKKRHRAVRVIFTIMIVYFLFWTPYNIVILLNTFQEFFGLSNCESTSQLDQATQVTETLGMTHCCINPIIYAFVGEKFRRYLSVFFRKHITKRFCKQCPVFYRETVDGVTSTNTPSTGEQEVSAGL
Measurement Notes: CCR2 receptor membrane binding assay ([125I]MCP-1, THP-1 cell membranes, SPA beads)
Protocol Conditions: @ 10 μM test compound; THP-1 membranes; read-out: CCR2 % ctrl @ 10 μM
Endpoint: remaining activity at 10 µM (%)
Write it as a number; the unit % goes unstated.

IN: Look up remaining activity at 10 µM of Cc1c(NCCCCc2ccccc2)ncnc1C(=O)N1CCC(N2CCC(O)CC2)CC1 [Example 15] and report it.
OUT: 14

====

Study System: CCR2 (Homo sapiens)
Construct: Membranes were prepared from THP-1 cells; endogenous in cells; host or cells: THP-1 cells (membrane preparation)
Measurement Notes: CCR2 receptor membrane binding assay ([125I]MCP-1, THP-1 cell membranes, SPA beads)
Protocol Conditions: @ 10 μM test compound; THP-1 membranes; read-out: CCR2 % ctrl @ 10 μM
Description: The above exemplary substances have been tested for binding to CCR2 using a binding assay as outlined herein below: THP-1 cells (human acute monocytic leukaemia cells) were cultured under standardized conditions at 37° C. and 5% CO2 in a humidified incubator. […] Perkin Elmer NEX 332 Jod 125 MCP-1, Stock: 2200 Ci/mmol solved in 2000 μl assay buffer, stored at −20° C. […] Bound radioactivity was determined by scintillation counter after 8 h. […]
Could you please mark met for values of remaining activity at 10 µM below 20% and not met for values at or above it?

Cc1nc(NCC2COc3ccccc3C2)c(C)c(C(=O)N2CCC(N3CCC(NS(C)(=O)=O)CC3)CC2)n1 (stereo not drawn) [Example 90]; met

Let's switch to this compound now.
IN: Consider Cc1c(NCc2ccc(Cl)c(Cl)c2)ncnc1C(=O)N1CCC(N2CCC(O)CC2)CC1 [Example 109] . Does its remaining activity at 10 µM lie strictly below 20%?
OUT: met

Origin of measurements: patent US8835440B2
